Data provenance is patent US20240317858A1.

target: T1, Rhesus CD3εδ Fc heterodimer (rhesus); assay: BLI (Octet), Fab monovalent, pH 7.4
T1 construct: extracellular domain; also called Rh CD3εδ-Fc
Parameter: log10 Kd (log10 of the value in nM)

# Binder, log10 Kd
rows = [
    ("Antibody No. A002 (ADI-50024) Fab (Fab, V domains shown, Fab by papain digestion of the IgG1) VH: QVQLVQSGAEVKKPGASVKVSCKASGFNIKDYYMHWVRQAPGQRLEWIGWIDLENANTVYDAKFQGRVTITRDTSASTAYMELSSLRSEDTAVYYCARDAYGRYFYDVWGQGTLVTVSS VL: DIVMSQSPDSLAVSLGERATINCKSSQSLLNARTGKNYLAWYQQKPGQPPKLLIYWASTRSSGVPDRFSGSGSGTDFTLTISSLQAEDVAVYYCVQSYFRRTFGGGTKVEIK", 0.08),
    ("Antibody No. A005 (ADI-26921) Fab (Fab, V domains shown, Fab by papain digestion of the IgG1) VH: QVQLVQSGAEVKKPGASVKVSCKASGFNIKDYYMHWVRQAPGQRLEWMGWIDLEEGNTIYDAKFQGRVTITRDTSASTAYMELSSLRSEDTAVYYCARDAYGRYFYDVWGQGTLVTVSS VL: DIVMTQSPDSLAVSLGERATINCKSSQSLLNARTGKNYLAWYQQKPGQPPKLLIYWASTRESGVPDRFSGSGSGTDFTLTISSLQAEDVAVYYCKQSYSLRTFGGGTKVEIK", 1.56),
    ("Antibody No. V016 (ADI-76359) Fab (Fab, V domains shown, Fab by papain digestion of the IgG1) VH: QVQLVQSGAEVKKPGASVKVSCKASGFDIKDYYMHWVRQAPGQRLEWMGWIDLENANTIYDAKFQGRVTITRDTSASTAYMELSSLRSEDTAVYYCGRDAYGRYFYDVWGQGTLVTVSS VL: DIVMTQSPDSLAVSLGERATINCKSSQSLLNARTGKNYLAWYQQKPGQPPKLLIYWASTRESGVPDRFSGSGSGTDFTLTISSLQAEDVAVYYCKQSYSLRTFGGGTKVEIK", 1.94),
    ("Antibody No. V007 (ADI-67450) Fab (Fab, V domains shown, Fab by papain digestion of the IgG1) VH: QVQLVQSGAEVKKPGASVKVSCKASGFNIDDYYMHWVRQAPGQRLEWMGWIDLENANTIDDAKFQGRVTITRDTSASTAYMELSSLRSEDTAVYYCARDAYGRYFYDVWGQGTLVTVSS VL: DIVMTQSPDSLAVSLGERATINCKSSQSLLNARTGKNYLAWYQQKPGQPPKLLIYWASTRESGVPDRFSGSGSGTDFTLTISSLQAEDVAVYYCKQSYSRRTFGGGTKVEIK", 0.96),
    ("Antibody No. V002 (ADI-67445) Fab (Fab, V domains shown, Fab by papain digestion of the IgG1) VH: QVQLVQSGAEVKKPGASVKVSCKASGFNIKDYYMHWVRQAPGQRLEWMGWIDLENAETIYDAKFQDRVTITRDTSASTAYMELSSLRSEDTAVYYCARDAYGRYFYDEWGQGTLVTVSS VL: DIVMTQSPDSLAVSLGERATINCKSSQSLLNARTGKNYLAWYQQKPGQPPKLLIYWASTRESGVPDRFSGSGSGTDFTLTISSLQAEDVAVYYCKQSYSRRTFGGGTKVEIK", 1.18),
]
